- TEST_DESCRIPTION: ATG_SREBP_CIS: Attagene CIS-FACTORIAL HepG2 Assay for human Sterol Regulatory Element Binding (SREBP) (AID 2282962)
- CONDITIONS_USED: HepG2 Attagene cis-factorial SREBP reporter, mRNA; actives raise or lower the signal
Calls of active or inactive are those of the source. Rule for the calls: active = hit-call score of the fitted dose curve at least 0.9, where 1 is the maximum; inactive = score below 0.9.
Form entry, call: pick from t = active, f = inactive

# example entries with known answers
MOLECULE	GROUP_LABEL
CC1(C)[C@H](C(=O)O[C@H](C#N)c2cccc(Oc3ccccc3)c2)[C@@H]1C=C(Br)Br	f
CC(C)C(=O)Cl	f

(Q) Could you kindly confirm the outcome this assay logged for O=c1[nH]c(Cl)c(Cl)cc1Cl ?
(A) f

(Q) Query Cc1ncc(C[n+]2csc(CCO)c2C)c(N)n1 next
(A) f

(Q) Same read-out for O=c1c2ccccc2c(=O)c2c1cc(Cl)c1[nH]c3c([nH]c12)c(Cl)cc1c(=O)c2ccccc2c(=O)c13 ?
(A) f

(Q) Please give the result for Cl/C=C\CCl too.
(A) f

(Q) Now the same for C[C@]12CCC(=O)C(O)=C1CC[C@@H]1[C@@H]2CC[C@]2(C)C(=O)CC[C@@H]12
(A) t

(Q) Continue with Nc1ccc([N+](=O)[O-])cc1N
(A) f

(Q) Entry Oc1cc(Cl)ccc1Cl please
(A) f

(Q) Same question for CCOC(=O)NC(=S)Nc1ccccc1NC(=S)NC(=O)OCC please.
(A) f

---

- TEST_DESCRIPTION: CCTE_Mundy_HCI_Cortical_NOG_NeuriteCount: CCTE's Neurite Outgrowth Assay in rat cortical cells for Neurite Count, Mundy Lab (AID 2284212);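 note: cells fixed about two days after chemical exposure began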
Active and inactive are the calls of the source. How the source made its calls: active means hit-call score of the fitted dose curve at least 0.9, where 1 is the maximum; inactive means score below 0.9.
Write down the outcome that applies. Available outcomes: y for active, n for inactive

Reference set (8 entries):
COMPOUND	GROUP_LABEL
O=[As]O	y
COP(=O)(OC)SCN1C(=O)c2ccccc2C1=O	n
CCOP(=O)(OCC)OC(Cl)C(Cl)(Cl)Cl (stereo unspecified)	n
CCOP(=S)(OCC)SCS(=O)C(C)(C)C (stereo unspecified)	n
C[C@H](N)Cc1ccccc1	n
CC1(C)[C@@H](C=C(Cl)Cl)[C@@H]1C(=O)O[C@@H](C#N)c1ccc(F)c(Oc2ccccc2)c1	n
Cc1ccc(OP(=O)(Oc2ccc(C)cc2)Oc2ccc(C)cc2)cc1 (tested in a mixture with another compound)	y
C#CCN(C)[C@H](C)Cc1ccccc1	n

(Q) Write down the call the test reported for this compound. Item: Brc1ccc(Oc2ccc(Br)cc2Br)c(Br)c1
(A) y

(Q) Would you kindly repeat that for CC1(C)[C@H](C=C(Cl)Cl)[C@H]1C(=O)OCc1c(F)c(F)cc(F)c1F ?
(A) y

(Q) Another compound: CNC(=N[N+](=O)[O-])NCC1CCOC1 (stereo unspecified)
(A) n

---

- Read-out: Matrix Metallopeptidase 1 (MMP1), MMP1 (gene 4312)
- TEST_DESCRIPTION: BSK_BE3C_MMP1: BioMAP Diversity Plus: BE3C Assay for Matrix Metallopeptidase 1 (MMP1) Biomarker Activity (AID 2283024)
- CONDITIONS_USED: primary human bronchial epithelial cells; actives raise or lower the signal
- Description: BSK_BE3C is a cell-based, multiplexed-readout assay that uses bronchial epithelial cell, a human lung primary cell, with measurements taken at 24 hours after chemical dosing in a 96-well plate.BSK_BE3C_MMP1 is an assay component measured in the BSK_BE3C assay. It measures MMP-1 antibody related to regulation of gene expression using ELISA technology.Data from the assay component BSK_BE3C_MMP1 was analyzed into 1 assay endpoint. […]
The source made the active and inactive calls. Rule for the calls: active = hit-call score of the fitted dose curve at least 0.9, where 1 is the maximum; inactive = score below 0.9.
Give one outcome, nothing more. List: yes for active, no for inactive

COMPOUND_STRUCTURE	GROUP_LABEL
CC(C)COP(=O)(OCC(C)C)OCC(C)C	no
CCc1cc(C)cc(CC)c1-c1c(OC(=O)C(C)(C)C)n2n(c1=O)CCOCC2	no
CC(C)(c1cc(Cl)c(O)c(Cl)c1)c1cc(Cl)c(O)c(Cl)c1	yes
[Cd+2].[Cl-].[Cl-]	no
O=C1C(Cl)=C(Cl)C(=O)C(Cl)=C1Cl	yes

// switching to the query compound
(Q) Answer briefly: the call reported for Oc1ccc(C2(c3ccc(O)cc3)c3ccccc3-c3ccccc32)cc1 in this assay.
(A) no
